Some compounds, each annotated with its measured Papp at 5 h, 0.5 mM.
Assay: Parallel Artificial Membrane Permeability Assay (PAMPA)
Type: in vitro ADME
Conditions: pH 7.4, 5 h, room temperature, read-out: AppP (apparent permeability)
Measured metric: Papp at 5 h, 0.5 mM

- Structure smiles string: "COc1ccc(-c2nnc(NC(=O)c3ccccc3C(=O)O)s2)cc1"
  Measured metric: "Papp at 5 h, 0.5 mM"
  Assay result: "< 1 nm/s"
- Structure smiles string: "CCCCOC(=O)c1ccccc1C(=O)Nc1nnc(-c2ccc(OC)cc2)s1"
  Measured metric: "Papp at 5 h, 0.5 mM"
  Assay result: "61 nm/s"
- Structure smiles string: "O=C(O)c1ccccc1C(=O)Nc1nnc(-c2ccc(O)cc2)s1"
  Measured metric: "Papp at 5 h, 0.5 mM"
  Assay result: "< 1 nm/s"
- Structure smiles string: "COC(=O)c1ccccc1C(=O)Nc1nnc(-c2ccc(OC)cc2)s1"
  Measured metric: "Papp at 5 h, 0.5 mM"
  Assay result: "7 nm/s"
- Structure smiles string: "CCOC(=O)c1ccccc1C(=O)Nc1nnc(-c2ccc(OC)cc2)s1"
  Measured metric: "Papp at 5 h, 0.5 mM"
  Assay result: "21 nm/s"
